Cited source: paper PMC9482650

Target: LNX1_2, Q8TBB1
Sequence (Q8TBB1 371-470): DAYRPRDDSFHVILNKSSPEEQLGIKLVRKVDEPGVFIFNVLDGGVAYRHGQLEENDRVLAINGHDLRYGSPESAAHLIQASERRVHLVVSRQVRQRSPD
Assay: holdup assay
Parameters: key: below the threshold = too weak to quantify, mostly under pKd 3.1 to 4
Conditions: plain residues with an end cap or a label only (N-terminal biotin on a linker: ado-ado)
Readout Kind: pKd

binder="YLEPVLSSEL [ATP2A2, P16615;P16615-3]" readout_value="below the threshold"
binder="LGRSTPQSEV [DGKH, Q86XP1]" readout_value="below the threshold"
binder="HLRARKSEWV [GJD4, Q96KN9]" readout_value=3.75
binder="TLPRKRMSSI [GPRC6A, Q5T6X5]" readout_value="below the threshold"
binder="RRLPGKETMA [GRIK2, Q13002]" readout_value="below the threshold"
binder="PEYLGLDVPV [ERBB2, P04626]" readout_value="below the threshold"
binder="LSEFKAMDSI [CTNNA1, P35221]" readout_value="below the threshold"
binder="HSGYRLNDYV [CLDN14, O95500]" readout_value=3.61
binder="QMNQTLPVQV [EPHB3, P54753]" readout_value=4.53
binder="SGSLKLMTTV [DACT1, Q9NYF0]" readout_value=3.84
binder="PDGQCTVTEV [RNF146, Q9NTX7]" readout_value=3.99
binder="CLREWCDAFL [BANF1, O75531]" readout_value="below the threshold"
binder="TASPAKETSF [SLC2A7, Q6PXP3]" readout_value="below the threshold"
binder="QSARLWETSI [ADAM22, Q9P0K1]" readout_value="below the threshold"
binder="PRISRSQSEL [CCDC134, Q9H6E4]" readout_value="below the threshold"
binder="GSGAVEMESV [AQP6, Q13520]" readout_value="below the threshold"
